experiment: in vitro; details: human, cryopreserved hepatocytes (suspension), with cimetidine 300 µM
parameter: hepatocyte CLint at 1 µM (µL/min/1e6 cells)
// note: answer is a bare numeric in µL/min/1e6 cells

(Q) Fill in: hepatocyte CLint at 1 µM of COC(=O)Nc1nc2ccc(C(=O)c3ccccc3)cc2[nH]1 is ___
(A) 24.8

---

Target: BCRP (Homo sapiens, UniProt Q9UNQ0)
Sequence (Q9UNQ0 1-655): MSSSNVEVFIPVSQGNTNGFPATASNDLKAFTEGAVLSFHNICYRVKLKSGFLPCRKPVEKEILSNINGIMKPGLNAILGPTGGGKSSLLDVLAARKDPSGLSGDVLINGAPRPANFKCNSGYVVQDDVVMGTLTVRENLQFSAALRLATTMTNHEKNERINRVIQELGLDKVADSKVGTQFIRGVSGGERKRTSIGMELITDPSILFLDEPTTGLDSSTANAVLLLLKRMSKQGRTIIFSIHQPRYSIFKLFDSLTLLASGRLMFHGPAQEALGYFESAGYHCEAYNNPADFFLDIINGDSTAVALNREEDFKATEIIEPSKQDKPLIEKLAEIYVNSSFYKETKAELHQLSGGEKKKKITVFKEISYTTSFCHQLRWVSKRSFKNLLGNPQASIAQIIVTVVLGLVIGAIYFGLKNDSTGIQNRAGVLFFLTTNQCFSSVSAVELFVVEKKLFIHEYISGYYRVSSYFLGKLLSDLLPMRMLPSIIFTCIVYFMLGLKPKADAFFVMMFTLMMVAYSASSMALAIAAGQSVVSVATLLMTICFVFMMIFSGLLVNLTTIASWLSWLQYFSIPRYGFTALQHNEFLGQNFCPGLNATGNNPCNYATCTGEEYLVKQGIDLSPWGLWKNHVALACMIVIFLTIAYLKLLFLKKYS
Assay: in vitro
Conditions: Caco-2, Papp Mean
parameter: Papp B→A at 120 min, 10 μM (×10⁻⁶ cm/s)
Respond numerically; units are ×10⁻⁶ cm/s and should not be typed.

(Q) Any idea what its Papp B→A at 120 min, 10 μM is? The compound is COC(=O)Nc1nc2ccc(C(=O)c3ccccc3)cc2[nH]1
(A) 29

---

assay: Ricobendazole microsomal metabolic stability without and with cimetidine or furafylline (Example 8); type: in vitro ADME; settings: human, liver microsomes, pH 7.4, with cimetidine 30 μM; 0.1 μM, 1 mg/mL, cimetidine 30 μM; read-out: CLint
parameter: microsomal CLint at 0.1 μM (µL/min/mg)
Your answer is read as µL/min/mg, so omit the unit and give the number.

(Q) Query (compound): CCC[S+]([O-])c1ccc2[nH]c(NC(=O)OC)nc2c1 (stereo not shown) [Ricobendazole, albendazole sulphoxide] ; field requested: microsomal CLint at 0.1 μM
(A) 3.15

---

experiment: Stability in human liver microsomes without and with cimetidine or furafylline (Example 4); assay type: in vitro ADME; details: human, liver microsomes, pH 7.4, with cimetidine 30 μM; substrate 1 μM, plus 30 μM cimetidine
Measured half-life at 1 μM of individual entries
Dear colleague, please return just the value in h, with no unit written.

[[record]]
molecule = "COC(=O)Nc1nc2ccc(C(=O)c3ccccc3)cc2[nH]1 [Mebendazole]"
readout_units = "h"
experimental_value = 1.28


Please examine the following record next.
(Q) What value of measured half-life at 1 μM is listed for CCOc1ccc(NC(C)=O)cc1 [Phenacetin] ?
(A) 1.09

---

target: BCRP (Homo sapiens); assay: in vitro; settings: Caco-2, Papp Rep 2
parameter: Papp B→A at 120 min, 10 μM (×10⁻⁶ cm/s)
Numeric only. Scale: ×10⁻⁶ cm/s

(Q) Return reported Papp B→A at 120 min, 10 μM; argument: COC(=O)Nc1nc2ccc(C(=O)c3ccccc3)cc2[nH]1
(A) 29.8

---

test: Stability in human cryopreserved hepatocytes without and with cimetidine or thiabendazole (Example 6); conditions: human, cryopreserved hepatocytes, with cimetidine 30 μM, t½, substrate 1 μM, cimetidine 30 μM
parameter: half-life at 1 μM

(Q) // query half-life at 1 μM value for entry CCOc1ccc2ccc(=O)oc2c1
(A) 13.9 min

---

test: Ricobendazole microsomal metabolic stability without and with cimetidine or furafylline (Example 8); format: in vitro ADME; details: human, liver microsomes, pH 7.4; 0.1 μM, 1 mg/mL, no inhibitor; read-out: t½
parameter: half-life at 0.1 μM (h)
Reply with just the number (in h).

(Q) What measured half-life at 0.1 μM goes with CCC[S+]([O-])c1ccc2[nH]c(NC(=O)OC)nc2c1 (stereo not shown) [Ricobendazole, albendazole sulphoxide] ?
(A) 4.08

---

Assay: Ricobendazole microsomal metabolic stability without and with cimetidine or furafylline (Example 8)
Format: in vitro ADME
Conditions: human, liver microsomes, pH 7.4, with furafylline 30 μM; read-out: CLint
Experimental: Incubation in the absence of NADPH was also performed to assess non-CYP mediated stability. Appropriate control compounds were also incubated. A minus cofactor control incubation was included for each compound tested where 0.1 M phosphate buffer pH 7.4 was added instead of NADPH (minus NADPH). […] A control compound (phenacetin) was included (incubated without and with inhibitors as described above). All incubations were performed singularly for each test compound. […]
parameter: microsomal CLint at 0.1 μM (µL/min/mg)
Value expressed in µL/min/mg; do not type the unit.

(Q) Can you share its microsomal CLint at 0.1 μM? I mean this compound: CCC[S+]([O-])c1ccc2[nH]c(NC(=O)OC)nc2c1 (stereo not shown) [Ricobendazole, albendazole sulphoxide]
(A) 2.92

---

experiment: Stability in human cryopreserved hepatocytes without and with cimetidine or thiabendazole (Example 6); conditions: human, cryopreserved hepatocytes (suspension), with thiabendazole 30 µM, CLint, substrate 1 μM, thiabendazole 30 μM
parameter: hepatocyte CLint at 1 µM (µL/min/1e6 cells)
Answer in µL/min/1e6 cells, number only, no unit symbol.

(Q) Reported hepatocyte CLint at 1 µM for CCOc1ccc2ccc(=O)oc2c1 : what is it?
(A) 5.35

---

Test: Stability in human liver microsomes without and with cimetidine or furafylline (Example 4)
Type: in vitro ADME
Conditions: human, liver microsomes, pH 7.4; substrate 1 μM, no inhibitor
Description: A minus cofactor control incubation was included for each compound tested where 0.1 M phosphate buffer pH 7.4 was added instead of NADPH (minus NADPH). […] The samples were analysed for mebendazole or phenacetin using LC-MS/MS. A minus cofactor control incubation was included for each compound tested where 0.1 M phosphate buffer pH 7.4 was added instead of cofactor (minus NADPH). […] The samples were analysed for mebendazole or phenacetin using LC-MS/MS.
parameter: microsomal CLint at 1 μM (µL/min/mg)
Please state the figure in µL/min/mg; there is no need to write the unit.

(Q) Consider the compound shown here: COC(=O)Nc1nc2ccc(C(=O)c3ccccc3)cc2[nH]1 [Mebendazole] What is its recorded microsomal CLint at 1 μM?
(A) 22.2

(Q) Follow-up entry: CCOc1ccc(NC(C)=O)cc1 [Phenacetin]
(A) 22.4

---

experiment: Stability in human cryopreserved hepatocytes without and with cimetidine or furafylline (Example 5); assay type: in vitro ADME; details: human, cryopreserved hepatocytes (suspension), with furafylline 3-30 µM (maximum half-life over 3, 10 and 30 µM), in the presence of furafylline (3-30 μM); read-out: half-life, maximum
parameter: half-life at 1 μM

(Q) Given the compound COC(=O)Nc1nc2ccc(C(=O)c3ccccc3)cc2[nH]1 [Mebendazole] , what is its reported half-life at 1 μM?
(A) ≤ 15.7 h

---

test: Ricobendazole microsomal metabolic stability without and with cimetidine or furafylline (Example 8); type: in vitro ADME; details: human, liver microsomes, pH 7.4, with cimetidine 300 μM; 0.1 μM, 1 mg/mL, cimetidine 300 μM; read-out: CLint
parameter: microsomal CLint at 0.1 μM

(Q) Item CCC[S+]([O-])c1ccc2[nH]c(NC(=O)OC)nc2c1 (stereo not shown) [Ricobendazole, albendazole sulphoxide] has what recorded microsomal CLint at 0.1 μM?
(A) 3.54 µL/min/mg

---

test: in vitro; settings: human, cryopreserved hepatocytes (suspension), with fluvoxamine 300 μM
parameter: hepatocyte CLint at 1 µM (µL/min/1e6 cells)
Numbers only; they are read as µL/min/1e6 cells.

(Q) Report hepatocyte CLint at 1 µM for COC(=O)Nc1nc2ccc(C(=O)c3ccccc3)cc2[nH]1 please.
(A) 6.16

---

experiment: Stability in human cryopreserved hepatocytes without and with cimetidine or furafylline (Example 5); type: in vitro ADME; conditions: human, cryopreserved hepatocytes, with cimetidine 100 μM, substrate 1 μM, cimetidine 100 μM; read-out: t1/2
half-life at 1 μM by entry:
Expressed in min, but write only the number.

[[record]]
compound = "COC(=O)Nc1nc2ccc(C(=O)c3ccccc3)cc2[nH]1 [Mebendazole]"
experimental_value = 94.1


Next, consider the following compound.
(Q) Query: half-life at 1 μM; subject: CCOc1ccc(NC(C)=O)cc1 [Phenacetin]
(A) 15.7

---

experiment: in vitro; conditions: human, cryopreserved hepatocytes, probe mebendazole 1 µM (intrinsic clearance)
parameter: inhibition at 30 µM (%)
Write the number in % without appending the unit.

(Q) Using the record for Cc1cccc(C)c1OCC(C)N (stereo not shown) , report its inhibition at 30 µM.
(A) 87
